Biological target: GR complex
Test: [35S]TBPS binding assay (inhibition of [35S]TBPS binding, cerebral cortex P2 homogenate)
Design: species or system rat
Conditions: 2 nM [35S]TBPS, rat cerebral cortex P2 homogenate; listed as 3α-Hydroxy-3β-(3'-hydroxyphenyl)-ethynyl-5β-pregnan-20-one
pIC50: −log10 of the molar value.
measurement name: pIC50

>>> print(df.to_string())
                                        smi  measurement_name  obs_value
0  CC(=O)[C@H]1CC[C@H]2[C@@H]3CC[C@@H]4C[C@@](O)(C#Cc5cccc(O)c5)CC[C@]4(C)[C@H]3CC[C@]12C             pIC50       6.21

---

Target: GR complex
Assay: [35S]TBPS binding assay (inhibition of [35S]TBPS binding, cerebral cortex P2 homogenate)
Design: species or system rat
Details: 2 nM [35S]TBPS, rat cerebral cortex P2 homogenate
Param label: returns true when IC50 < 100 nM, returns false otherwise, including exact equality.

>>> print(df.to_string())
                                    compound  assigned_category
 0  CC(=O)c1ccc(C#CC2(O)CCC3(C)C(CCC4C3CCC3(C)C(C(=O)CO)CCC43)C2)cc1 (centres unmarked)               true
 1  CC(=O)[C@H]1CC[C@H]2[C@@H]3CC[C@@H]4C[C@@](O)(CCc5ccccc5)CC[C@]4(C)[C@H]3CC[C@]12C              false
 2  C[C@]12CC[C@](O)(C#CCCO)C[C@H]1CC[C@@H]1[C@@H]2CC[C@]2(C)[C@@H](C(=O)Cn3ccnn3)CC[C@@H]12               true
 3  C#CCOCC#C[C@@]1(O)CC[C@@]2(C)[C@H](CC[C@@H]3[C@@H]2CC[C@]2(C)[C@@H](C(C)=O)CC[C@@H]32)C1               true
 4  CC(=O)[C@H]1CC[C@H]2[C@@H]3CC[C@@H]4C[C@@](O)(C#Cc5ccc(C(N)=O)cc5)CC[C@]4(C)[C@H]3CC[C@]12C              false
 5  Cc1nccn1CC(=O)[C@H]1CC[C@H]2[C@@H]3CC[C@@H]4C[C@H](O)CC[C@]4(C)[C@H]3CC[C@]12C              false
 6  CC12CCC3C4CCC(O)(C(F)(F)F)CC4CCC3C1CCC2C(=O)CSS(=O)(=O)[O-].[Na+] (centres unmarked)              false
 7  CC(=O)CCC#C[C@@]1(O)CC[C@@]2(C)[C@H](CC[C@@H]3[C@@H]2CC[C@]2(C)[C@@H](C(C)=O)CC[C@@H]32)C1              false
 8  CC(=O)[C@H]1CC[C@H]2[C@@H]3CC[C@@H]4C[C@@](O)(C#CCn5ccnc5)CC[C@]4(C)[C@H]3CC[C@]12C              false
 9  C[C@]12CC[C@@H](O)C[C@@H]1CC[C@@H]1[C@@H]2CC[C@]2(C)[C@@H](C(=O)Cn3ccnc3)CC[C@@H]12               true
10  C[C@]12CC[C@](O)(C#CCCO)C[C@H]1CC[C@@H]1[C@@H]2CC[C@]2(C)[C@@H](C(=O)Cn3cnnn3)CC[C@@H]12               true
11  CC(=O)[C@H]1CC[C@H]2[C@@H]3CC[C@@H]4C[C@@](O)(C#CCN(C)C)CC[C@]4(C)[C@H]3CC[C@]12C              false
12  CC(=O)[C@H]1CC[C@H]2[C@@H]3CCC4=CC(=O)CC[C@]4(C)[C@H]3CC[C@]12C [Progesterone, reference compound]              false
